# PROCEDURE DETAILS: chemical genetic growth profiling, strain panel (AID 1159580);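 further: tested at 20 µM; growth read once vehicle control cultures reached saturation at 30 °C; 1 = growth at the plate median or of vehicle wells; lower values mean less growth of the strain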
# ASSAY CONDITIONS: S. cerevisiae deletion strains, growth OD, locus YNL233W, strain BNI4, hits give low values
The campaign covered roughly 5,500 compounds. About 2,000 (36%) were called active. About 18% were inconclusive and are not listed. The list shows a part of the results.
Assign normalized growth to each entry below.
Hey, just send me the number, nothing else.

Problem: GET /values?readout=normalized growth&item= O=c1c(O)cccc2c(C3Oc4cc(O)cc(O)c4CC3O)cc(O)c(O)c12 (stereo not given)
Result: 0.453

Problem: Quick one: normalized growth for Cc1ccccc1N1C(=O)c2cc(S(N)(=O)=O)c(Cl)cc2NC1C (stereo not given) ?
Result: 1.01

Problem: So what's the measured normalized growth for this one? Cc1c(C(N)=O)cc([N+](=O)[O-])cc1[N+](=O)[O-]
Result: 1.01

Problem: Given the entry CNC[C@H](O)c1cccc(O)c1 , report its measured normalized growth.
Result: 1.01

Problem: Recorded normalized growth for CC[C@H]1CN2CCC1C[C@@H]2[C@@H](O)c1ccnc2ccc(OC)cc12 (stereo not given in full) , please?
Result: 1

Problem: Report normalized growth for NC[C@H]1O[C@H](O[C@H]2[C@H](O)[C@@H](O[C@H]3O[C@H](CO)[C@@H](O)[C@H](N)[C@H]3O)[C@H](N)C[C@@H]2N)[C@H](N)[C@@H](O)[C@@H]1O please.
Result: 1.01

Problem: Please look up its normalized growth: Oc1ccc2c3c1OC1[C@@H](O)CC[C@@]4(O)[C@@H](C2)N(CC2CCC2)CC[C@]314 (stereo not given in full)
Result: 1.02

Problem: Give the measured normalized growth of NC(=O)c1ccc([N+](=O)[O-])cc1Cl .
Result: 0.982

Problem: Please report the recorded normalized growth for COC(=O)CC1C(C)(C)C(OC(C)=O)[C@@H]2[C@@H](OC(C)=O)[C@]34O[C@@]2(O)[C@]1(C)C3CC[C@]1(C)C4=CC(=O)O[C@H]1c1ccoc1 (stereo not given in full) .
Result: 1.08

Problem: // query normalized growth value for entry COc1ccc(-c2cc(=O)c3c(O)c(OC)c(OC)cc3o2)cc1O
Result: 0.928

Problem: What value of normalized growth has been reported for the following compound? N#Cc1c(Cl)cccc1Cl
Result: 1.02

Problem: Would you mind telling me what normalized growth value was observed for COc1cc(O)c2c(=O)cc(-c3ccc(O)cc3)oc2c1 ?
Result: 1.02

Problem: // normalized growth lookup, key: O=C(O)c1ccccc1O
Result: 1

Problem: Any idea what normalized growth was measured for COc1cc(C(=O)O)cc(OC)c1OC ?
Result: 1.03

Problem: What value of normalized growth has been reported for the following compound? CC[C@@]1(O)C(=O)OCc2c1cc1n(c2=O)Cc2cc3cc(O)ccc3nc2-1
Result: 1.01

* * *

Please respond with reported normalized growth for every item in the list.
# PROCEDURE DETAILS: chemical genetic growth profiling, strain panel (AID 1159580);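 further: tested at 20 µM; growth read once vehicle control cultures reached saturation at 30 °C; 1 = growth at the plate median or of vehicle wells; lower values mean less growth of the strain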
# ASSAY CONDITIONS: S. cerevisiae deletion strains, growth OD, locus YDR162C, strain NBP2, hits give low values
The campaign covered roughly 5,500 compounds. About 2,000 (36%) were called active. Inconclusive results (about 18%) are left out. Some of the results follow.
// return just the number, without any unit appended

Problem: Consider the compound shown here: Cc1c(OCC(F)(F)F)ccnc1CS(=O)c1nc2ccccc2[nH]1 (stereo unspecified) What is its recorded normalized growth?
Result: 0.976

Problem: Please give the measured normalized growth for this compound: O=c1c(O)cc([C@H]2Oc3cc(O)cc(O)c3C[C@H]2O)cc2c([C@H]3Oc4cc(O)cc(O)c4C[C@H]3O)cc(O)c(O)c12
Result: 1.03

Problem: Name the recorded normalized growth for O=C(Oc1ccccc1C(=O)O)c1ccccc1O .
Result: 0.97

Problem: Which value of normalized growth has been reported for NCC(O)CC(=O)O (stereo unspecified) in the records?
Result: 1.02

Problem: Item N#Cc1c(Cl)cccc1Cl has what recorded normalized growth?
Result: 1.01

Problem: # input compound: CC[C@@]1(O)C(=O)OCc2c1cc1n(c2=O)Cc2cc3cc(O)ccc3nc2-1 ; wanted: its normalized growth
Result: 1.02

Problem: Would you kindly share the measured normalized growth for O=C(/C=C(\O)c1ccccc1)c1ccccc1O ?
Result: 0.794

Problem: Entry under review: COc1cc(O)c2c(=O)cc(-c3ccc(OC)c(-c4c(O)cc(O)c5c(=O)cc(-c6ccc(O)cc6)oc45)c3)oc2c1 . Reported normalized growth?
Result: 0.915

Problem: Can you share its normalized growth? I mean this compound: NCCCCN
Result: 1.04

Problem: Which normalized growth is listed for CNC[C@H](O)c1cccc(O)c1 ?
Result: 1.01

Problem: I'd like to know its normalized growth. The compound in question is NC(=O)c1ccccc1O
Result: 1.01

Problem: Need normalized growth of CCOC(=O)CC(SP(=S)(OC)OC)C(=O)OCC (stereo unspecified) , thanks.
Result: 1.01

Problem: Name the reported normalized growth value associated with the compound CC1(C)Oc2ccc3ccc(=O)oc3c2CC1O (stereo unspecified)
Result: 0.978

Problem: Suppose we examine the compound C/C=C(/C)C(=O)O[C@@H]1Cc2c(ccc3ccc(=O)oc23)OC1(C)C ; what normalized growth value has been reported?
Result: 0.927

Problem: Quick one: normalized growth for COc1c(O)cc2c(c1O)[C@H]1O[C@H](CO)[C@@H](O)[C@H](O)[C@@H]1OC2=O ?
Result: 0.988

Problem: # get_value(readout='normalized growth', item= NC[C@@H]1O[C@H](O[C@@H]2[C@@H](CO)OC(O[C@@H]3[C@@H](O)[C@H](N)C[C@H](N)[C@H]3O[C@H]3O[C@H](CO)[C@@H](O)[C@H](O)[C@H]3N)[C@@H]2O)[C@H](N)[C@@H](O)[C@@H]1O (stereo partly specified) )
Result: 0.998

Problem: Would you kindly share the measured normalized growth for CC1=CC(=O)C(C(C)C)=CC1=O ?
Result: 0.858

Problem: Requested field: normalized growth. Item: CC1CCCC(C)N1NC(=O)c1ccc(Cl)c(S(N)(=O)=O)c1 (stereo unspecified)
Result: 0.997

Problem: I have this compound here, NC[C@H]1O[C@H](O[C@H]2[C@H](O)[C@@H](O[C@H]3O[C@H](CO)[C@@H](O)[C@H](N)[C@H]3O)[C@H](N)C[C@@H]2N)[C@H](N)[C@@H](O)[C@@H]1O , and I need its recorded normalized growth.
Result: 1.01

Problem: Data request, read-out normalized growth, for COC(=O)C[C@H]1C(C)(C)[C@@H](O)[C@@H]2CC3=C4CC(O)O[C@@H](c5ccoc5)[C@]4(C)CCC3[C@@]1(C)C2=O (stereo partly specified)
Result: 0.987

Problem: Recorded normalized growth for NC(=O)c1ccc([N+](=O)[O-])cc1Cl , please?
Result: 0.945

Problem: I would be grateful if you could share the reported normalized growth for CN(C)CC[C@H](c1ccc(Cl)cc1)c1ccccn1 .
Result: 1.01

Problem: Quick one: normalized growth for COc1cc(C)c2c(=O)c3c(O)cc(OC)cc3oc2c1 ?
Result: 1.02

Problem: Data request, read-out normalized growth, for CC(=O)O[C@@H]1CC2C(C)(C)CCC[C@]2(C)C2CC[C@]3(C)C(=CC(=O)O[C@H]3c3ccoc3)[C@@]21C (stereo partly specified)
Result: 1

Problem: Which value of normalized growth has been reported for CC(=O)Oc1ccccc1C(=O)Oc1ccccc1C(=O)O in the records?
Result: 1.02

Problem: Look at this compound and give its reported normalized growth. COc1cc(O)c2c(=O)cc(-c3ccc(O)cc3)oc2c1
Result: 1.06

* * *

# PROCEDURE DETAILS: chemical genetic growth profiling, strain panel (AID 1159580);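 further: tested at 20 µM; growth read once vehicle control cultures reached saturation at 30 °C; 1 = growth at the plate median or of vehicle wells; lower values mean less growth of the strain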
# ASSAY CONDITIONS: S. cerevisiae deletion strains, growth OD, locus YOR136W, strain idh2, hits give low values
Hit rate of the full screen: of about 5,500 compounds, about 2,000 (36%) were called active. About 18% were inconclusive and are not listed. Some of the results follow.
Provide the recorded normalized growth for the entries that follow.

Problem: Reported normalized growth for CN(C)C(=O)C(CCN1CCC(O)(c2ccc(Cl)cc2)CC1)(c1ccccc1)c1ccccc1 : what is it?
Result: 1 (inactive)

Problem: Fill in the blank: the reported normalized growth of CSc1nc(NC(C)C)nc(NC(C)C)n1 is ____.
Result: 1.03 (inactive)

Problem: Quick one: normalized growth for O=C(CCCN1CCC2(CC1)C(=O)NCN2c1ccccc1)c1ccc(F)cc1 ?
Result: 0.98 (inactive)

* * *

# PROCEDURE DETAILS: chemical genetic growth profiling, strain panel (AID 1159580);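 further: tested at 20 µM; growth read once vehicle control cultures reached saturation at 30 °C; 1 = growth at the plate median or of vehicle wells; lower values mean less growth of the strain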
# ASSAY CONDITIONS: S. cerevisiae deletion strains, growth OD, locus YPL055C, strain LGE1, hits give low values
Screen size: about 5,500 compounds; about 2,000 (36%) were called active. Not shown: some 18% with an inconclusive outcome. The list shows a part of the results.
MEASURED ENDPOINT: normalized growth
# respond with the number and nothing more

Problem: Tell me the measured normalized growth of NC(N)=NC(N)=Nc1cccc(Cl)c1 , please.
Result: 1

Problem: I would be grateful if you could share the reported normalized growth for CC(C)(C)c1ccc(Oc2ncccc2NC(=O)c2ccccc2C(F)(F)F)cc1 .
Result: 0.996

Problem: Please give the measured normalized growth for this molecule: Cc1ccc(Sc2ncccc2C(=O)NCC(=O)O)cc1
Result: 1.01

Problem: I would be grateful if you could share the reported normalized growth for O=C(NCCNCC(O)COc1ccc(O)cc1)N1CCOCC1 (stereo not drawn) .
Result: 1.02

Problem: # lookup: normalized growth of CCN(CC)C(=O)N[C@@H]1C[C@@H]2c3cccc4[nH]cc(c34)C[C@H]2N(C)C1
Result: 1.01

Problem: Which measured normalized growth value corresponds to COc1ccccc1N1CCN(C(=O)C(C)Nc2ccccn2)CC1 (stereo not drawn) ?
Result: 1.01

Problem: Given COc1cc(O)c2c(=O)cc(-c3ccc(O)cc3)oc2c1 , state its recorded normalized growth.
Result: 1.02

Problem: GET /values?readout=normalized growth&item= Cn1c(SCc2ccccc2)nnc1-c1ccc2ncccc2c1
Result: 0.99

Problem: Record request: normalized growth value, item COc1ccccc1N1CCN(CCCCN2C(=O)c3ccccc3C2=O)CC1
Result: 0.971

Problem: Which normalized growth is reported for this molecule? NNC(=O)c1cccnc1Oc1ccccc1
Result: 1.02

Problem: What measured normalized growth goes with O=C(NC1CCCCC1)N1CCN(c2ncccc2C(F)(F)F)CC1 ?
Result: 1.01

Problem: I would be grateful if you could share the reported normalized growth for CC(=O)CS(=O)(=O)c1ccc(Cl)cc1 .
Result: 1

Problem: normalized growth for CCC(=O)O[C@]1(C(=O)CCl)[C@@H](C)CC2C3CCC4=CC(=O)C=C[C@]4(C)[C@@]3(F)[C@@H](O)C[C@@]21C (stereo partly drawn) ?
Result: 1.01
